Consider the following compounds; for each one, report its pIC50.
molecular target: chitinase enzyme extracted from Trichoderma viride; assay: Chitinase inhibition assay (NP-GlcNAc substrate); type: biochemical; conditions: Enz.-inhib. incubation time 20 min
Answers are plain numbers, as −log10 of the molar value.

• CCNC(=N)NCCCCCCN1CCCCCCCCNC(=N)NC1=O = 3.29
• C/C=C/CNC(=N)NCCCCCCCCN1CCCCCOc2ccccc2CNC(=N)NC1=O = 3.82
• C/C=C/CNC(=N)NCCCCCCCCN1CCCCCCCCNC(=N)NC1=O = 3.73
• N=C(NCCCCCCCCN1CCCCCCCCNC(=N)NC1=O)NCC1CC1 = 3.60
• C=C(C)CNC(=N)NCCCCCCN1CCCCCCCCNC(=N)NC1=O = 3.56

Qu. Reported pIC50 for "C#CCNC(=N)NCCCCCCN1CCCCCCCCNC(=N)NC1=O" : what is it?
Ans. 3.77

###

Consider the following molecules; for each one, report its log10 of MIC90.
test system: C. albicans; experiment: Antimicrobial susceptibility testing (microdilution MIC90), C. albicans strains; format: cell-based; conditions: Candida albicans; C. albicans (22 strains tested); 24 h, visually and spectrophotometrically
Log10 applied to MIC90; unit prior to transform: µg/mL.

As a guide, the following entries are already answered.
• C/C=C/CNC(=N)NCCCCCCCCN1CCCc2ccccc2COc2ccccc2CNC(=N)NC1=O [Example 22] = 1.81
• C/C=C/CNC(=N)NCCCCCCCCN1CCCCCOC(=O)CCNC(=N)NC1=O [Example 19] = 1.51
• C/C=C/CNC(=N)NCCCCCCCCN1CCCCCOc2ccccc2CNC(=N)NC1=O [Example 17] = 0.60
• C/C=C/CNC(=N)NCCCCCCCCN1CCCCCCOc2ccccc2CNC(=N)NC1=O [Example 18] = 0.60
• C/C=C/CNC(=N)NCCCCCCCCN1CCCCCCOC(=O)CCNC(=N)NC1=O [Example 20] = 1.20

Look at each molecule and report its log10 of MIC90.
1. C/C=C/CNC(=N)NCCCCCCCCN1CCCc2cccc(c2)COc2ccccc2CNC(=N)NC1=O [Example 23]
2. C/C=C/CNC(=N)NCCCCCCCCN1CCCCCCOc2ccccc2C(c2cn(-c3ccccc3)nn2)NC(=N)NC1=O (stereo not drawn) [Example 21]

Ans.
1: 2.41; 2: 1.51

Look at each molecule and report its log10 of MIC90.
1. C/C=C/CNC(=N)NCCCCCCCCN1CCCCOc2ccccc2CNC(=N)NC1=O [Example 16]
2. OC(Cn1cncn1)(Cn1cncn1)c1ccc(F)cc1F [F, Fluconazole, reference compound]

Ans.
1.20
0.30

###

molecular target: chitinase enzyme extracted from Trichoderma viride; assay: Chitinase inhibition assay (NP-GlcNAc substrate); format: biochemical; details: Enz.-inhib. incubation time 3 h
pIC50: −log10 of the molar value.
Mark not satisfied for pIC50 values under 4, and satisfied for everything at or above.

// below: answered compounds
• CCNC(=N)NCCCCCCN1CCCCCCCCNC(=N)NC1=O [Compound 38] = not satisfied
• C/C=C/CNC(=N)NCCCCCCCCN1CCCCCOc2ccccc2CNC(=N)NC1=O [Example 17] = satisfied

Next:
Qu. Tell me whether pIC50 is at least 4 here: C/C=C/CNC(=N)NCCCCCCCCN1CCCCCCCCNC(=N)NC1=O [Compound 35]
Ans. not satisfied

Cited source for all entries: patent US10071975B2
